Source of measurements: patent US20040005636A1

# targetSystem: T1, hTRβ-LBD (ligand binding domain of thyroid hormone receptor β) (human, UniProt P10828 202-461)
# T1 construct: Assayed with the small-molecule ligand T3 present
# T1 sequence (looked up): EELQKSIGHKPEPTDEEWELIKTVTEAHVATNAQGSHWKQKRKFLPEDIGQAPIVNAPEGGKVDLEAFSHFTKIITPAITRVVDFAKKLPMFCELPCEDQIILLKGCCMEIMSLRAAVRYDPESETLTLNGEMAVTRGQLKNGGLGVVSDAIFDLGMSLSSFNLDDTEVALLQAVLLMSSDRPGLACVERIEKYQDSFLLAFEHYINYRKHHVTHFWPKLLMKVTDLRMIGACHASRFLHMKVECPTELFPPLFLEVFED
# procedureText: fluorescence polarization, fluorescein-labelled peptide 10 nM, hTRβ-LBD titrated, T3 present
Ends that are not written are not given here.
propertyMeasured: Kd (nM)
A number alone suffices; assume nM.

Please report the recorded Kd for C(5‑iodoacetamidofluorescein)ESKGHKKLLQLLTCSSDDR (The peptide has a second, internal Cys) [SRC3-1 coregulator peptide] .
870
